B1: LOC100129726 (parent)
chain: AKAADSPTRNDLESGLGHFSLRVH

# Variants of: B1
# ASSAY COMMENT: protein stability index of a GFP-peptide fusion (GPS, HEK-293T) (PSI 1-6); higher = more stable;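 note: lentivirally expressed fusions sorted by FACS into six bins by GFP to DsRed ratio, PSI derived from sequencing read proportions per bin multiplied by bin number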
# CONDITION DESCRIPTION: c terminus: a fixed tail appended
QUANTITY MEASURED: protein stability index
Kindly provide the number alone.

| MUTATION STRING | ASSAY VALUE |
| --- | --- |
| H24V | 2.61 |
| E13H | 2.74 |
| V23K | 4.43 |
| T8A | 2.95 |

Proceed to the following item.
Noted for L16A : its protein stability index reads 3.97
